Would you kindly list protein stability index for each of these variants?
B1: TTC32 (parent)
chain: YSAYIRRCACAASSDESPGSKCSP

Variants of: B1
Experiment: protein stability index of a GFP-peptide fusion (GPS, HEK-293T) (PSI 1-6); higher = more stable;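 also: lentivirally expressed fusions sorted by FACS into six bins by GFP to DsRed ratio, PSI derived from sequencing read proportions per bin multiplied by bin number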
Settings: c terminus: a fixed tail appended
Lab note: write the figure by itself, no unit.

Input line: Return value of protein stability index for input "Y4H" , no commentary.
Output line: 2.12

Input line: Return value of protein stability index for input "S17K" , no commentary.
Output line: 1.94

Input line: Return value of protein stability index for input "C8K" , no commentary.
Output line: 3.48

Input line: Return value of protein stability index for input "S20W" , no commentary.
Output line: 1.85

Input line: Return value of protein stability index for input "A11N" , no commentary.
Output line: 2.35

Input line: Return value of protein stability index for input "S23F" , no commentary.
Output line: 1.9

Input line: Return value of protein stability index for input "R7Q" , no commentary.
Output line: 2.48

Input line: Return value of protein stability index for input "C8I" , no commentary.
Output line: 2.21

Input line: Return value of protein stability index for input "S17L" , no commentary.
Output line: 1.78

Input line: Return value of protein stability index for input "Y4V" , no commentary.
Output line: 3.07

Input line: Return value of protein stability index for input "G19F" , no commentary.
Output line: 2.32
